This collection of values is drawn from PubChem BioAssay AID328.

# Tested on: BDF1 mice, P388 leukemia ip, median survival T/C
# experimentalDetails: NCI In Vivo Anticancer Drug Screen. Data for tumor model P388 Leukemia (intraperitoneal) in B6D2F1 (BDF1) mice
# conditions: endpoint: median survival time; dose: 50.0 mg/kg/injection; schedule: Q01DX009 (ip); vehicle: saline with Tween-80; higher = longer survival
Inconclusive results and toxic doses are left out.
T/C for assorted compounds

Look over these answered cases.
INSERT INTO results (compound, testsystem, result) VALUES
  ('CC1=C(c2ccccc2)C(c2ccccc2)C(/C=C/c2ccccc2)=NC=C1c1ccccc1 (centres undefined)', 'BDF1 mice, P388 leukemia ip, median survival T/C', '108 % of control'),
  ('COc1cc2c(cc1OC)C(CNC(=O)/C=C/c1cc(OC)c(OC)c(OC)c1)C2 (centres undefined)', 'BDF1 mice, P388 leukemia ip, median survival T/C', '98 % of control'),
  ('O=C1c2ccccc2-c2c(Br)c3ccccc3c(=O)n21', 'BDF1 mice, P388 leukemia ip, median survival T/C', '105 % of control'),
  ('N#C/C(=C\c1ccncc1)c1ccccc1', 'BDF1 mice, P388 leukemia ip, median survival T/C', '98 % of control'),
  ('O=C(O)/C=C/C(=O)Nc1ccc(I)cc1', 'BDF1 mice, P388 leukemia ip, median survival T/C', '109 % of control');

// query What does the data say about its T/C? Entry: C(=C/c1nnc2ncccn12)/c1ccccc1
// result 97 % of control

// query What do you have for Cc1[nH]nc(-c2ccon2)c1N ?
// result 115 % of control

// query Also CN(C)CCCNc1cc(/C=C/c2cccc3ccccc23)nc2ccccc12 , if possible.
// result 95 % of control

// query Same question, NC1=NC(=O)NC1(c1ccccc1)c1ccccc1 this time
// result 107 % of control

// query And what about the compound CS(=O)(=O)CC(O)(c1ccc(Cl)cc1)c1ccccn1 (centres undefined) ?
// result 91 % of control

====

Each entry below carries its reported T/C.
# Tested on: BDF1 mice, P388 leukemia ip, median survival T/C
# experimentalDetails: NCI In Vivo Anticancer Drug Screen. Data for tumor model P388 Leukemia (intraperitoneal) in B6D2F1 (BDF1) mice
# conditions: endpoint: median survival time; dose: 200.0 mg/kg/injection; schedule: Q04DX003 (ip); vehicle: Klucel (hydroxypropylcellulose) (HPC); higher = longer survival
Inconclusive results and toxic doses are left out.

Below: 8 molecules and their reported T/C.
INSERT INTO measurements (molecule, result) VALUES
  ('O=Cc1ccc(N(c2ccccc2)c2ccccc2)cc1', '111 % of control'),
  ('O/N=C(\c1ccccc1)C(c1ccccc1)C(Cl)(Cl)Cl (stereo not given)', '100 % of control'),
  ('CC(=O)OCCCc1ccccc1', '100 % of control'),
  ('NC(=O)C1CCCC12NC(=O)NC2=O (stereo not given)', '100 % of control'),
  ('COc1ccc(OC)c([N+](=O)[O-])c1', '95 % of control'),
  ('CC(=O)Nc1ccc(S(=O)(=O)N(CCO)c2ccccc2)cc1', '87 % of control'),
  ('c1ccc(NNC(c2ccccc2)(c2ccccc2)c2ccccc2)cc1', '91 % of control'),
  ('O=C(NCCCl)Nc1cccc2cc3ccccc3cc12', '95 % of control');

// query Request body: readout T/C, system BDF1 mice, P388 leukemia ip, median survival T/C, query CC(Oc1cc(Cl)ccc1Cl)C(=O)O (stereo not given) . Return the value.
// result 104 % of control

// query Entry CSc1ccccc1C=O please
// result 100 % of control

====

Property: T/C; scope: individual compounds
# System: BDF1 mice, P388 leukemia ip, median survival T/C
# experimentalDetails: NCI In Vivo Anticancer Drug Screen. Data for tumor model P388 Leukemia (intraperitoneal) in B6D2F1 (BDF1) mice
# conditions: endpoint: median survival time; dose: 100.0 mg/kg/injection; schedule: Q04DX003 (ip); vehicle: Klucel (hydroxypropylcellulose) (HPC); higher = longer survival
Toxic doses and inconclusive results are not listed.

// query Quick check: T/C of COC(=O)c1cc(=O)n(-c2ccccc2F)c(SC)n1 ?
// result 116 % of control

// query Try this compound next: O=C(NN=C1CCCCC1)c1ccccc1
// result 86 % of control

// query Same question for O=C(c1ccccc1)c1c2ccccc2c(C(=O)c2ccccc2)c2ccccc12 please.
// result 91 % of control

====

# Tested on: BDF1 mice, P388 leukemia ip, median survival T/C
# experimentalDetails: NCI In Vivo Anticancer Drug Screen. Data for tumor model P388 Leukemia (intraperitoneal) in B6D2F1 (BDF1) mice
# conditions: endpoint: median survival time; dose: 50.0 mg/kg/injection; schedule: Q01DX009 (ip); vehicle: other; higher = longer survival
# Experimental: The antitumor activity of compounds was measured in mice bearing transplantable tumors. Survival or tumor size were measured and the results are expressed as the measurement made in the treated group (T) divided by the measurement made in the vehicle treated control group (C). The tumor model used in this assay is P388 Leukemia (intraperitoneal) in B6D2F1 (BDF1) mice
Toxic doses and inconclusive results are not listed.
property: T/C

Past entries and their recorded results:
INSERT INTO measurements (givensmiles, testsystem, property, result) VALUES
  ('CCCNC(=O)OCc1c(COC(=O)NCCC)c(-c2ccc(Cl)c(Cl)c2)n2c1CCC2', 'BDF1 mice, P388 leukemia ip, median survival T/C', 'T/C', '172 % of control'),
  ('CCCCCCC(=O)O[C@H]1CC[C@H]2[C@@H]3CCC4=CC(=O)CC[C@]4(C)[C@H]3CC[C@]12C', 'BDF1 mice, P388 leukemia ip, median survival T/C', 'T/C', '100 % of control');

Shift focus to the following entry.
// query // returns reported T/C for input Cc1ccc(S(=O)(=O)N/N=C/c2ccncc2)cc1
// result 119 % of control

====

# Test system: BDF1 mice, P388 leukemia ip, median survival T/C
# experimentalDetails: NCI In Vivo Anticancer Drug Screen. Data for tumor model P388 Leukemia (intraperitoneal) in B6D2F1 (BDF1) mice
# conditions: endpoint: median survival time; dose: 100.0 mg/kg/injection; schedule: Q04DX003 (ip); vehicle: saline with Tween-80; higher = longer survival
Inconclusive results and toxic doses are left out.
property: T/C

// query Value wanted: T/C (BDF1 mice, P388 leukemia ip, median survival T/C) of entry CC(=O)OCC(=O)[C@@]1(O)CC[C@H]2[C@@H]3C[C@H](C)C4=CC(=O)C=C[C@]4(C)[C@H]3[C@@H](O)C[C@@]21C
// result 104 % of control

// query Would you mind doing Cc1cccc(/C=N\OCc2ccccc2)n1 as well?
// result 118 % of control

// query Another: CC(C)(C)P(c1ccccc1)c1ccccc1
// result 107 % of control

// query Would you mind doing CCCCN(CCCC)CC(C)O (stereo not drawn) as well?
// result 100 % of control

====

# Test system: BDF1 mice, P388 leukemia ip, median survival T/C
# experimentalDetails: NCI In Vivo Anticancer Drug Screen. Data for tumor model P388 Leukemia (intraperitoneal) in B6D2F1 (BDF1) mice
# conditions: endpoint: median survival time; dose: 100.0 mg/kg/injection; schedule: Q01DX009 (ip); vehicle: saline with Tween-80; higher = longer survival
Inconclusive results and toxic doses are left out.
property: T/C

Some solved entries appear below for comparison.
INSERT INTO assay_data (molecule, result) VALUES
  ('COC(=O)c1c2ccccc2cn1Cc1ccccc1', '100 % of control'),
  ('CCCCCCCCN(C)N=Nc1ccc(Cl)cc1C(=O)O', '94 % of control'),
  ('CCOC(=O)CC1=NN(C(=O)c2ccccc2)C(=NC(=O)c2ccccc2)SC1', '101 % of control'),
  ('CCSC1(SCC)C(=O)OC2=C(CCCCC2)C1N(C)C (centres undefined)', '95 % of control'),
  ('COC(=O)C(CSCSC)NC(=O)/C=C/c1ccccc1C (centres undefined)', '98 % of control');

// query Can you look up the measured T/C of CCNS(=O)(=O)c1ncnc2nc[nH]c12 for me?
// result 100 % of control

// query Same for CCCCCCC(=O)/C=C/c1ccc(N(C)C)cc1
// result 97 % of control

// query Would you mind doing Cc1cc(N(C)C)cc(C)c1N=Nc1cc[n+]([O-])cc1 as well?
// result 124 % of control

// query Moving on to the next molecule: CC1=C(Cc2ccccc2)C(C)(C)CCC1
// result 112 % of control

====

# System: BDF1 mice, P388 leukemia ip, median survival T/C
# experimentalDetails: NCI In Vivo Anticancer Drug Screen. Data for tumor model P388 Leukemia (intraperitoneal) in B6D2F1 (BDF1) mice
# conditions: endpoint: median survival time; dose: 200.0 mg/kg/injection; schedule: Q04DX003 (ip); vehicle: saline with Tween-80; higher = longer survival
Toxic doses and inconclusive results are not listed.
property: T/C

Completed entries (count: 3):
INSERT INTO results (molecule, testsystem, result) VALUES
  ('CCOC(=O)c1ccc(OC(=O)Nc2ccccc2OC)cc1', 'BDF1 mice, P388 leukemia ip, median survival T/C', '108 % of control'),
  ('CC(=O)c1ccccc1NC=O', 'BDF1 mice, P388 leukemia ip, median survival T/C', '104 % of control'),
  ('C=CCSc1nc(N)nc2nc[nH]c12', 'BDF1 mice, P388 leukemia ip, median survival T/C', '100 % of control');

// query Report T/C for COC(=O)C(CSCc1ccccc1)NC(=O)CCNC(=O)OCc1ccccc1 (stereo unspecified) please.
// result 94 % of control

// query Thanks! And Cc1ccc(NC(=O)c2ccccc2C(=O)O)cc1C ?
// result 100 % of control

// query Cc1ccc(C(=O)CCCCl)cc1C ?
// result 104 % of control

// query Would you mind doing O=CNc1ccc(O)cc1 as well?
// result 104 % of control

// query # iterate: CCCCC(CC)COC(=O)CCC(CCC(=O)OCC(CC)CCCC)C(=O)OCC(CC)CCCC (stereo unspecified)
// result 118 % of control

// query Here is the next molecule: CC(=N\O)/C(=N\O)C(=O)c1ccccc1
// result 95 % of control

// query Check CCOC(=O)C(C)C(OCC)OCC (stereo unspecified) too.
// result 91 % of control

// query Same lookup for O=[N+]([O-])c1ccc2nc3c(nc2c1)-c1cccc2cccc-3c12 , please.
// result 100 % of control
